Factor D (Homo sapiens (Human), UniProt P00746) measurements of IC50, listed per entry.
Sequence (P00746 26-253): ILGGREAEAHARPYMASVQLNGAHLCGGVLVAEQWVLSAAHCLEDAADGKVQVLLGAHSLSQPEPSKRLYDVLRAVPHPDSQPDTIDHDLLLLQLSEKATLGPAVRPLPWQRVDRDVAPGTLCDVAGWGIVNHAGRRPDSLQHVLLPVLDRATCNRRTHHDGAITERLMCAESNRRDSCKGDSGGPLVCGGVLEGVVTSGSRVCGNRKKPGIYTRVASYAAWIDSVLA

Guide cases for IC50, answers given:
>  <Compound>
COc1ccc(CC(=O)O)c(OCc2c(CO)oc3ccc(-c4cccc(CN)c4)cc23)c1 [Compound 214c]

>  <IC50>
< 1000 nM

$$$$
>  <Compound>
COc1ccc(CC(=O)O)c(OCc2c(C)oc3ccc(-c4cccc(CN)n4)cc23)c1 [Compound 245d]

>  <IC50>
< 1000 nM

$$$$
>  <Compound>
CC(C)n1nc2ccc(-c3cccc(CN)c3)cc2c1COc1ccccc1CC(=O)O [Compound 183e]

>  <IC50>
< 1000 nM

$$$$
>  <Compound>
NCc1cccc(-c2ccc3occ(COc4ccc(F)cc4CC(=O)O)c3c2)c1

>  <IC50>
< 1000 nM

$$$$
>  <Compound>
CCc1ccc(CC(=O)O)c(OCc2coc3ccc(-c4cccc(CN)c4F)cc23)c1 [Compound 12g]

>  <IC50>
< 1000 nM

$$$$
>  <Compound>
CCOC(=O)Cc1ccccc1OCc1cc(-c2cccc(CN)c2)c2oc(COc3ccccc3CC(=O)O)cc2c1 [Compound 22e]

>  <IC50>
< 1000 nM

$$$$

Below is a list of compounds. For each, state its recorded IC50.
1. CCOC(=O)Cc1ccccc1OCc1cc2c(-c3cccc(CN)c3)cccc2o1 [Compound 25c]
2. COc1c(-c2ccc3c(c2)c(COc2ccccc2CC(=O)O)nn3C2CCC2)ccnc1CN [Compound 328d]
3. NCc1cccc(-c2ccc3occ(COc4ccccc4CC(=O)O)c3c2)c1
4. CC(C)Cn1cc(-c2cc(-c3cccc(CN)c3)cc3c(COc4ccccc4CC(=O)O)coc23)cn1 [Compound 129c]
5. COc1ccc(CC(=O)O)c(OCc2coc3c(C(F)(F)F)cc(-c4cccc(CN)c4)cc23)c1 [Compound 270c]
6. NCc1cccc(-c2cc(OC[C@H]3CCCO3)c3occ(COc4ccccc4CC(=O)O)c3c2)c1 [Compound 76i]

1. > 10000 nM
2. > 10000 nM
3. < 1000 nM
4. < 1000 nM
5. < 1000 nM
6. < 1000 nM
